In this section we review reported TGI values for a set of compounds.
System: HCT-15 colon
Assay: NCI tumour cell line growth inhibition, 48 h

| compound | test_target | operator_symbol | TGI, µM |
| --- | --- | --- | --- |
| O=C(CCN1CCCC1)Nc1ccc2c(NCCc3ccccc3)c3ccccc3nc2c1 | HCT-15 colon | = | 4.85 |
| COc1ccc(N2N=NN(C(C)C)/C2=C(/Cl)c2nnnn2-c2ccc(OC)cc2)cc1 | HCT-15 colon | = | 31.4 |
| CCn1c(=O)c2c3ccc(OC)cc3[nH]c2c2ccc(OC)cc21 | HCT-15 colon | > | 100 |
| CCSc1ccc([C@@H]2[C@@H](N)C(=O)N2c2cc(OC)c(OC)c(OC)c2)cc1 | HCT-15 colon | > | 100 |
| CCOc1ccc(NCC2CC/C(=C\c3ccc(Cl)cc3)C2=O)cc1 (stereo unspecified) | HCT-15 colon | = | 23.7 |
| Cc1cccc(C(C)C)c1NC(=O)CCl | HCT-15 colon | > | 100 |

---

Catalogue of TGI readings, one per entry.
Test system: CCRF-CEM leukemia
Experiment: NCI tumour cell line growth inhibition, 48 h
assay_endpoint: TGI

| compound | readout_value |
| --- | --- |
| O=C1CCNC(=O)NC1 | > 100 µM |
| C[C@]12CC[C@H](O)CC1=CC[C@@H]1[C@@H]2CC[C@]2(C)C(=O)/C(=C/c3ccc([N+](=O)[O-])cc3)C[C@@H]12 | > 100 µM |
| CCN(CC)c1ccc2cc(C(N)=O)c(=Nc3ccc(F)cc3)oc2c1 | > 100 µM |
| COc1ccc(C2=C(Cl)c3cc(OC)c(OC)cc3C2)cc1OC | > 100 µM |
| NC(=O)c1sc(-n2cnc3ccc(C(F)(F)F)cc32)cc1OCc1ccccc1Br | > 25 µM |
| CCOc1cc2c(=O)oc3c(OC)ccc4ccc(c1OC)c2c43 | > 100 µM |
| C[C@@H](Oc1cc(-n2cnc3ccc(OCC4CCN(C)CC4)cc32)sc1C(N)=O)c1ccccc1Cl | 0.856 µM |
| Cn1c(COC(=O)NC2CCCCC2)c(COC(=O)NC2CCCCC2)c2ccc3cc(C=O)ccc3c21 | > 100 µM |
| CC(=O)N1C(Nc2cccc3nc(C)ccc23)CCN1c1ccccc1 (stereo not given) | > 10 µM |
| COC12C=CC(CC1)C(C)(C)C2OS(C)(=O)=O (stereo not given) | > 100 µM |

---

System: LOX IMVI melanoma
Assay: NCI tumour cell line growth inhibition, 48 h; in the data active = GI50 below about 0.43 µM; inactive = the rest
Possible outcomes: active, inactive

| compound | test_target | assigned_class |
| --- | --- | --- |
| COc1cc(-c2nc3cc(Cl)c(Cl)cc3[nH]2)ccc1OCC(=O)N=Nc1c(O)[nH]c2ccc(Cl)cc12 | LOX IMVI melanoma | active |
| CCCCCCCCCCCC1=NC(C)(C)CN1CC(C)O (centres undefined) | LOX IMVI melanoma | inactive |
| O=C(CCN1CCCC1)Nc1ccc2c(NCCc3ccccc3)c3ccccc3nc2c1 | LOX IMVI melanoma | active |
| CC(C)=CC(=O)N[C@@H]1CC2CCC3C(CC[C@@]4(C)C3CC[C@@H]4C(C)N(C)C)[C@@]2(C)C[C@@H]1O (some centres undefined) | LOX IMVI melanoma | inactive |
| COc1cc(-c2nc(-c3ccc(-c4nc5ccc(F)cc5[nH]4)cc3)no2)cc(OC)c1OC | LOX IMVI melanoma | inactive |
| Oc1ccc(Oc2cnc3cc(Cl)ccc3n2)cc1 | LOX IMVI melanoma | inactive |
| O=C(Cc1csc2nc(-c3ccc(Br)cc3)cn12)N/N=C/c1ccc(Cl)cc1Cl | LOX IMVI melanoma | inactive |
| O=C1NC(=O)[C@@H](c2c[nH]c3ccccc23)[C@@H]1c1c[nH]c2ccccc12 | LOX IMVI melanoma | inactive |
| O=C1/C(=C/c2ccc(Cl)cc2)CN(C(=O)CCN2CCC(=NO)CC2)C/C1=C\c1ccc(Cl)cc1 | LOX IMVI melanoma | active |

---

Tested on: RXF 393 renal
Assay: NCI tumour cell line growth inhibition, 48 h; in the data active = GI50 below about 0.43 µM; inactive = the rest
Outcome codes: YES = active, NO = inactive

| compound | assigned_class |
| --- | --- |
| CCCCCCCCCCCC1=NC(C)(C)CN1CC(C)O (stereo not given) | NO |
| COc1ccc(/C=C\c2cc(OC)c(OC)c(OC)c2)cc1OCC(=O)Nc1nc2ccccc2s1 | YES |
| CNC(=O)c1cc(Oc2ccc3nc(N[C@@H]4CCCC[C@H]4O)sc3c2)ccn1 | NO |
| CCOC(=O)c1ccc(N(C=O)CCC(=O)CCl)cc1 | YES |
| Cc1ccc(-c2cc(-c3ccc(C)cc3)nc(N3CCN(CCNc4ccnc5cc(Cl)ccc45)CC3)n2)cc1 | NO |
| O=C(Nc1ccc(Oc2ccc(NC(=O)Nc3ccc([N+](=O)[O-])cc3)cc2)cc1)Nc1ccc([N+](=O)[O-])cc1 | NO |
| CC[C@H](C)[C@H](NC(=O)NC(C)(C)C)C(=O)N(C)[C@H](C[C@@H](OC(C)=O)c1nc(C(=O)N[C@@H](Cc2ccccc2)C[C@H](C)C(=O)OC)cs1)C(C)C | NO |
| O=C(Cc1ccc(Nc2ccnc(C(F)(F)F)c2)cc1)Nc1cc(Cl)ccc1O | NO |
| C[C@@H](Oc1cc(-n2cnc3ccc(OCC4CCN(C)CC4)cc32)sc1C(N)=O)c1ccccc1Cl | YES |
| O=c1c2c(=NCCN3CCCC3)cc3c(=O)n(CCCN4CCOCC4)c(=O)c4ccc(c(O)n1CCCN1CCOCC1)c2c4-3 | YES |
| COc1ccc2c(c1)[nH]c(=O)c1c3cc(OC)c(OC)cc3cn21 | YES |
| O=C(Nc1ccc(Nc2ccncc2)cc1)c1ccc(Nc2ccnc3ccc([N+](=O)[O-])cc23)cc1[N+](=O)[O-] | NO |
| COc1cnc2c(c1)C(=O)c1c-2n(CCCNCCN2CCOCC2)c(=O)c2cc([N+](=O)[O-])ccc12 | YES |
| CCSc1ccc([C@@H]2[C@@H](N)C(=O)N2c2cc(OC)c(OC)c(OC)c2)cc1 | YES |
| COc1cc(-c2nc(-c3ccc(-c4nc5ccc(F)cc5[nH]4)cc3)no2)cc(OC)c1OC | NO |
| CN(C)c1ccc(Nc2c3ccccc3nc3cc(NC(=O)CCN4CCCC4)ccc23)cc1 | NO |
| COc1cc(C(=O)O/N=C(\N)Cc2cccc3ccccc23)cc(OC)c1OC | NO |
| Cc1ccc2nc3c(n2c1)C(=O)C(=O)c1ccccc1-3 | YES |
| Oc1ccc(Oc2cnc3cc(Cl)ccc3n2)cc1 | NO |
| Nc1nc(-c2ccc(Cl)cc2)cc(-c2ccc(Cl)cc2)c1-c1nc2ccccc2o1 | NO |

---

Entries and their TGI
Test system: LOX IMVI melanoma
Assay: NCI tumour cell line growth inhibition, 48 h

| compound | test_target | TGI |
| --- | --- | --- |
| O=C(Nc1ccc(Nc2ccncc2)cc1)c1ccc(Nc2ccnc3ccc([N+](=O)[O-])cc23)cc1[N+](=O)[O-] | LOX IMVI melanoma | > 51 µM |
| CCOC1NC(/N=C/c2ccc(OC)cc2)=C(C#N)C1C#N (stereo unspecified) | LOX IMVI melanoma | > 100 µM |
| COc1cc(O)cc(O)c1C(=O)CC(Cl)(Cl)Cl | LOX IMVI melanoma | > 100 µM |
| CCCC(C)c1c(Cl)nc(Cl)nc1Cl (stereo unspecified) | LOX IMVI melanoma | > 100 µM |
| Cc1ccc(NC(=O)/C(=N/NC(=O)C[N+](C)(C)C)c2nc3ccccc3[nH]c2=O)cc1 | LOX IMVI melanoma | > 100 µM |
| C[N+]1([O-])[C@H]2CC(OC(=O)[C@H](CO)c3ccccc3)C[C@H]1[C@H]1O[C@H]12 (stereo partly specified) | LOX IMVI melanoma | > 100 µM |

---

Attribute: TGI
Tested on: SK-OV-3 ovarian
Assay: NCI tumour cell line growth inhibition, 48 h

| compound | operator_symbol | TGI [µM] |
| --- | --- | --- |
| O=C1/C(=C/c2ccc(Cl)c(Cl)c2)CNC/C1=C\c1ccc(Cl)c(Cl)c1 | = | 69.6 |
| O=C(Cn1c(C(=O)c2ccc(Cl)cc2)nc(-c2ccccc2)c1-c1ccccc1)c1ccc(Cl)cc1 | > | 100 |
| Cc1cn([C@H]2C[C@H](O)[C@@H](CO)O2)c(=O)nc1N | > | 100 |
| CCN(CC)c1ccc2cc(C(N)=O)c(=Nc3ccc(F)cc3)oc2c1 | > | 100 |
| O=C(CCN1CCCC1)Nc1ccc2c(NCCc3ccccc3)c3ccccc3nc2c1 | = | 2.07 |
| O=C(N[C@H]1CCC[C@H]1C(=O)Nc1ccc(C(F)(F)F)cc1)OCc1ccccc1 | > | 100 |
| O=S1(=O)OCCCOS(=O)(=O)C1(Br)Br | > | 100 |
| O=c1[nH]nc(Cc2ccc(Cl)cc2)n1/N=C/c1c[nH]c2ccccc12 | > | 100 |
| COc1cc2c(c(OC)c1OC)-c1ccc(SC)c(=O)cc1[C@@H](NC(=O)c1ccc([N+](=O)[O-])cc1)CC2 | = | 0.0575 |
| O=C1/C(=C/c2ccc(Cl)cc2)CCC1CN1CCOCC1 (stereo not given) | = | 31.9 |
